Values were extracted from ChEMBL document CHEMBL1127123.

- assayed-system: Polyunsaturated fatty acid 5-lipoxygenase (Homo sapiens, UniProt P09917)
- Sequence (P09917 whole entry): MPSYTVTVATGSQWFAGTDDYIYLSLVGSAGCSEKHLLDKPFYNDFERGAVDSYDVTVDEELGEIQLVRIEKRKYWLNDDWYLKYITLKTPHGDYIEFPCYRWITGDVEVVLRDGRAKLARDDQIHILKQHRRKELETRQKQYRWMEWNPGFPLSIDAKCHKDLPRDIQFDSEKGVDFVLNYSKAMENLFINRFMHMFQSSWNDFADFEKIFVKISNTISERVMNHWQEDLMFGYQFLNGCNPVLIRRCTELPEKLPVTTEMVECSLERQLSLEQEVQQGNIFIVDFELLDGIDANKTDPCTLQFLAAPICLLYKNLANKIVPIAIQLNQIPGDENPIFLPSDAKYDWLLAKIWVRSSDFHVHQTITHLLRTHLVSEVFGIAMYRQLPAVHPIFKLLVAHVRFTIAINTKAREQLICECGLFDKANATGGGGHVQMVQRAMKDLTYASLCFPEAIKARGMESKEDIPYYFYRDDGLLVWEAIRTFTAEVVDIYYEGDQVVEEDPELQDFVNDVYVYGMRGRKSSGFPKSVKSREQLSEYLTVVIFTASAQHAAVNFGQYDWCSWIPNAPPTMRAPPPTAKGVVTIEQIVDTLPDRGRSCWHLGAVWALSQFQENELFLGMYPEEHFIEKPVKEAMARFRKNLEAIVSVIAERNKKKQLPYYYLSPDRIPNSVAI
- protocol: In vitro inhibition of LTB4 biosynthesis by human leukocytes
- Assay type: functional
List of pIC50 values.
Formally, pIC50 is defined as -log10 of the concentration c, with c in mol/L.

Respond only with pIC50 recorded for O=C1OCc2c1cc1cc3c(cc1c2-c1ccccc1)OCO3
6.80

State, in one line, measured pIC50 of O=C1OCc2c1cc1ccccc1c2-c1ccc2c(c1)OCO2
6.42

---
Give the measured pIC50 for Cc1cc2cc3c(cc2c(-c2ccc4c(c2)OCO4)c1C)OCO3
6.60

Give reported pIC50 value for c1cc2c(cc1C1c3cocc3Cc3cc4c(cc31)OCO4)OCO2 (stereo unspecified)
6.38

Supply measured pIC50 of O=C1OCc2c1cc1cc(OCc3ccc(-c4ccccc4)cn3)ccc1c2-c1ccccc1 in your reply.
7.66
